Recorded measurements of Emax, one per entry
target: SMARCA2 (Homo sapiens, UniProt P51531); construct: endogenous in cells; assay: SMARCA2 HiBiT degradation assay (cellular); assay type: cell-based; conditions: A549, Emax = amount of residual protein remaining in the cell following compound treatment
Sequence (P51531 whole entry): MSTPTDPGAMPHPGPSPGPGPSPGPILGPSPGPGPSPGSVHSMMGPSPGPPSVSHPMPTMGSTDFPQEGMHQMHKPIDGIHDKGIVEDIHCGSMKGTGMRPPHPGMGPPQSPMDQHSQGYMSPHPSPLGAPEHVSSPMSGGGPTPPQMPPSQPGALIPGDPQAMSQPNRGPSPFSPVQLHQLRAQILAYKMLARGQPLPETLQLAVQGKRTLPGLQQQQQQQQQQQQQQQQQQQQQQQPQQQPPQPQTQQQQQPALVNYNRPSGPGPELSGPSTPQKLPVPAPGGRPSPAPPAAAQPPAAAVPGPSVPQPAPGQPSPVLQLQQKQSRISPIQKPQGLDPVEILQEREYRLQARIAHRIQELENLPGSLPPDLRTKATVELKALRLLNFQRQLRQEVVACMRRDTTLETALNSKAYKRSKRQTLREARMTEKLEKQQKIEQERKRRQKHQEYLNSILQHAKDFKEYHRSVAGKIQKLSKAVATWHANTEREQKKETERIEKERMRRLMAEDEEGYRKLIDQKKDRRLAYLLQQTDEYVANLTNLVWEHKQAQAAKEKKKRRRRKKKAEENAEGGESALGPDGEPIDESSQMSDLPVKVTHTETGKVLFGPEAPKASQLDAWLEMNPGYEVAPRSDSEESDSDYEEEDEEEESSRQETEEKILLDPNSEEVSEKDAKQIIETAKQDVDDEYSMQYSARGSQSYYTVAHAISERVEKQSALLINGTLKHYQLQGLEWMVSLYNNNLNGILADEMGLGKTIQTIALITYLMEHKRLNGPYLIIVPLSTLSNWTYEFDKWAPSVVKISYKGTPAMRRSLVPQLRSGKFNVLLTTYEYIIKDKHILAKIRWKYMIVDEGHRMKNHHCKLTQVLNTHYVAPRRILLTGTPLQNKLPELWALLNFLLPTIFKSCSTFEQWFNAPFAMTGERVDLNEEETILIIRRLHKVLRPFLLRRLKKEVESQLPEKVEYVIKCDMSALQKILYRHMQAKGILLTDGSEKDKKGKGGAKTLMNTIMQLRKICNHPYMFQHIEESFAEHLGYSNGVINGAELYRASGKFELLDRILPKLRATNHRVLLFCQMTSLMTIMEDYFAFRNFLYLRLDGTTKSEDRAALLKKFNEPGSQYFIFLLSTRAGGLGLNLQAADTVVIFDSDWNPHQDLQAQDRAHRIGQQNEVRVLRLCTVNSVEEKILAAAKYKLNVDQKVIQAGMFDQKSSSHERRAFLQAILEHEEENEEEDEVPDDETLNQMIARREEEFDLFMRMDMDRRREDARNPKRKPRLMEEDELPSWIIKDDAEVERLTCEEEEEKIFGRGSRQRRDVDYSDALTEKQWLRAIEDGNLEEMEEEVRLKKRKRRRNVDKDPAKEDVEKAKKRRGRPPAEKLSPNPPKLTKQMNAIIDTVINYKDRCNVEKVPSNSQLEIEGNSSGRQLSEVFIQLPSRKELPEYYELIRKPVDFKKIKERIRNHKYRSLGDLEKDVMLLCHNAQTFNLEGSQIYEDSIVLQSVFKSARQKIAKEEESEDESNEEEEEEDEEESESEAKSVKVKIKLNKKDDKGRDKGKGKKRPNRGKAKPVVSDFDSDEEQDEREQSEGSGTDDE
Give the number; % is assumed, so skip it.

// worked examples, Emax included
Cc1ncsc1-c1ccc(CNC(=O)[C@@H]2C[C@@H](O)CN2C(=O)[C@@H](NC(=O)CCCCCCCCCCC(=O)N2C3CCC2CN(c2cc(-c4ccccc4O)nnc2N)C3)C(C)(C)C)cc1    38
Cc1ncsc1-c1ccc([C@H](C)NC(=O)[C@@H]2C[C@@H](O)CN2C(=O)[C@@H](NC(=O)CCCCCCCCC(=O)N2CCN(Cc3cccc(OC4CN(c5cc(-c6ccccc6O)nnc5N)C4)c3)CC2)C(C)(C)C)cc1    25
Cc1ncsc1-c1ccc(CNC(=O)[C@@H]2C[C@@H](O)CN2C(=O)[C@@H](NC(=O)CCCCCCCCC(=O)N2CCN(CCOc3ccccc3N3C4CCC3CN(c3cc(-c5ccccc5O)nnc3N)C4)CC2)C(C)(C)C)cc1    27
Cc1ncsc1-c1ccc(CNC(=O)[C@@H]2C[C@@H](O)CN2C(=O)[C@H](NC(=O)CCCCCCCCCOc2cccc(N3C4CCC3CN(c3cc(-c5ccccc5O)nnc3N)C4)c2)C(C)(C)C)cc1    33
Cc1ncsc1-c1ccc(CNC(=O)[C@@H]2C[C@@H](O)CN2C(=O)[C@@H](NC(=O)CCCCCCCCCC(=O)N2CCN(Cc3cccc(N4C5CCC4CN(c4cc(-c6ccccc6O)nnc4N)C5)c3)CC2)C(C)(C)C)cc1    39

So, Cc1ncsc1-c1ccc([C@H](C)NC(=O)[C@@H]2C[C@@H](O)CN2C(=O)[C@@H](NC(=O)CCCCCC(=O)N2CCN(c3ccc(N4CCCC(Oc5cc(-c6ccccc6O)nnc5N)C4)cc3)CC2)C(C)(C)C)cc1 (mixture of isomers) ? Its Emax was 20

So, Cc1ncsc1-c1ccc([C@H](C)NC(=O)[C@@H]2C[C@@H](O)CN2C(=O)[C@@H](NC(=O)CCCCCCCCCCC(=O)N2CCN(CCOc3ccc(N4CCCC(Oc5cc(-c6ccccc6O)nnc5N)C4)cc3)CC2)C(C)(C)C)cc1 (mixture of isomers) ? Its Emax was 21

So, Cc1ncsc1-c1ccc([C@H](C)NC(=O)[C@@H]2C[C@@H](O)CN2C(=O)[C@@H](NC(=O)CCCCCCCCC(=O)N2CCN(c3cccc(N4CCCC(Oc5cc(-c6ccccc6O)nnc5N)C4)c3)CC2)C(C)(C)C)cc1 (mixture of isomers) ? Its Emax was 44

So, Cc1ncsc1-c1ccc([C@H](C)NC(=O)[C@@H]2C[C@@H](O)CN2C(=O)[C@@H](NC(=O)CCCCCCCCCNC(=O)C(c2ccccc2)n2cc(-c3cc(-c4ccccc4O)nnc3N)cn2)C(C)(C)C)cc1 (mixture of isomers) ? Its Emax was 29
